system_tested: UniProt P51532
assay_method_text: HiBit assay in engineered HT1080 CRISPR knock-in cell, 6 hrs (B series), SMARCA4
Assay type: cell-based
cond: HT1080 CRISPR knock-in cells, 6 hrs incubation; read-out: SMARC A4 HT1080 HiBit DC50
The reader will find reported DC50 values listed item by item below.

Cc1ncsc1-c1ccc([C@H](CN2CCOCC2)NC(=O)[C@@H]2C[C@@H](O)CN2C(=O)[C@@H](c2cc(O[C@H]3CC[C@H](CN4CCC(c5ccc6c(c5)-n5c(nc(=O)c7c(Cl)cccc75)C6(C)C)CC4)CC3)no2)C(C)C)cc1	< 100 nM

Which DC50 is reported with UniProt P51532 for this entry: Cc1ncsc1-c1ccc([C@H](CN2CCOCC2)NC(=O)[C@@H]2C[C@@H](O)CN2C(=O)C(c2cc(N3CCC(CN4CCC(c5ccc6c(c5)-n5c(nc(=O)c7c(Cl)cccc75)C6(C)C)CC4)CC3)no2)C(C)C)cc1 (some centres unmarked) ?
< 100 nM

* * *

system_tested: SMARCA4 (Homo sapiens, UniProt P51532)
Sequence (P51532 whole entry): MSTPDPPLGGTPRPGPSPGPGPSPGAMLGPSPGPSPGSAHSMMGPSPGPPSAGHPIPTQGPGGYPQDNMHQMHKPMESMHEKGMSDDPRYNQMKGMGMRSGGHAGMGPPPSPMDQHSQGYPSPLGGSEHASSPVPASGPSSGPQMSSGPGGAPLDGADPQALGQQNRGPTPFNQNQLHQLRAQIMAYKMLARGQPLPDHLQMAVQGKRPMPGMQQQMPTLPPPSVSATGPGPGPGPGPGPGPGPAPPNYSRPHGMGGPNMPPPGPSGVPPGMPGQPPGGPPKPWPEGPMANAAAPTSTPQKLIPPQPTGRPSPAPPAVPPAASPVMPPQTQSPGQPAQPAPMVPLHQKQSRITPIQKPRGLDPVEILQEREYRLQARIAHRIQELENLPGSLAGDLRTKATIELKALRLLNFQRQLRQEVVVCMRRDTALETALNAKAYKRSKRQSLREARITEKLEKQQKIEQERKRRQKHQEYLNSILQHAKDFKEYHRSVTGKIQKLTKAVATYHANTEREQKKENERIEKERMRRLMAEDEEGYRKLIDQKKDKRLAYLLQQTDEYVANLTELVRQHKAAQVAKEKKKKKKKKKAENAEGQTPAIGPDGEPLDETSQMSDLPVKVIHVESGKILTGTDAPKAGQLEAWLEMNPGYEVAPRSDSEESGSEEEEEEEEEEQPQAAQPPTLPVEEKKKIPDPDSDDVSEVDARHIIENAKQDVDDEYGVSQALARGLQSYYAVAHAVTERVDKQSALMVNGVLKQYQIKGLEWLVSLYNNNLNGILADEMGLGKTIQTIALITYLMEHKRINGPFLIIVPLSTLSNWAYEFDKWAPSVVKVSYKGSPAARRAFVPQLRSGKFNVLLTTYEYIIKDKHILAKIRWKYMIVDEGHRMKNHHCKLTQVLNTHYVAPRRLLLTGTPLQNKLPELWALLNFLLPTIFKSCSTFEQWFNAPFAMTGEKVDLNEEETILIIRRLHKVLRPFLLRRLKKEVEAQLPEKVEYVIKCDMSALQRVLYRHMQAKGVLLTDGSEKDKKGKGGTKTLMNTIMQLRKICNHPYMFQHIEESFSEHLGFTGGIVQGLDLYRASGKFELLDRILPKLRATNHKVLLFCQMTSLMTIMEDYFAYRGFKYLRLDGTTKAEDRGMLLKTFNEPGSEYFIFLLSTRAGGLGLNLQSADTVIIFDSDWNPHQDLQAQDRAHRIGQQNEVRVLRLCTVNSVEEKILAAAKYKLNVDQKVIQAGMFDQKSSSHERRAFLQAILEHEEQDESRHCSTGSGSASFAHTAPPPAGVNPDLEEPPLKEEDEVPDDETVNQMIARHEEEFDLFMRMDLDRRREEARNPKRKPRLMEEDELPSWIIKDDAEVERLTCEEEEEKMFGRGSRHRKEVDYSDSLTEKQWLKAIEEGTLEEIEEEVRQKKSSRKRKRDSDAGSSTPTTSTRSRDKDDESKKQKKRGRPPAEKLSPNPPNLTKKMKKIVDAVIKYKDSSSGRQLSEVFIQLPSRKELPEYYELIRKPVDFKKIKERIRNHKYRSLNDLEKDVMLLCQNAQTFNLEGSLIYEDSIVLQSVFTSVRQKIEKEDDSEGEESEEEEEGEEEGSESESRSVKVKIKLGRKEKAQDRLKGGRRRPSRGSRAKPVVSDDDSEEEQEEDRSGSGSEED
assay_method_text: HiBit assay in engineered HT1080 CRISPR knock-in cell, 6 hrs (B series), SMARCA4
Assay type: cell-based
cond: HT1080 CRISPR knock-in cells, 6 hrs incubation; read-out: SMARC A4 HT1080 HiBit DC50
property: DC50

Some solved cases for reference:
Cc1ncsc1-c1ccc(C2(NC(=O)[C@@H]3C[C@@H](O)CN3C(=O)[C@@H](n3cc([C@H]4CC[C@H](CN5CCC(c6ccc7c(c6)-n6c(nc(=O)c8c(Cl)cccc86)C7(C)C)CC5)CC4)nn3)C(C)(C)C)CN(C)C2)cc1	100 to 500 nM
Cc1ncsc1-c1ccc([C@H](C)NC(=O)[C@@H]2C[C@@H](O)CN2C(=O)[C@@H](NC(=O)[C@H]2CC[C@H](Cn3cc(-c4ccc5c(c4)C(C)(C)c4nc(=O)c6c(Cl)cccc6n4-5)cn3)CC2)C(C)(C)C)cc1	100 to 500 nM
Cc1cc(C(C(=O)N2C[C@H](O)C[C@H]2C(=O)N[C@@H](C)c2ccc(-c3scnc3C#CCOCCCN3CCC(c4ccc5c(c4)-n4c(nc(=O)c6c(Cl)cccc64)C5(C)C)CC3)cc2)C(C)C)on1 (stereo partly shown)	< 100 nM

From here, focus on the item given below.
GET /values?readout=DC50&system=SMARCA4 (Homo sapiens, UniProt P51532)&item= Cc1ncsc1-c1ccc([C@H](C)NC(=O)[C@@H]2C[C@@H](O)CN2C(=O)[C@@H](c2cc(OCCN3CCC(c4ccc5c(c4)C(C)(C)c4nc(=O)c6c(Cl)cccc6n4-5)CC3)no2)C(C)C)cc1
< 100 nM

* * *

system_tested: UniProt P51531
Sequence (P51531 whole entry): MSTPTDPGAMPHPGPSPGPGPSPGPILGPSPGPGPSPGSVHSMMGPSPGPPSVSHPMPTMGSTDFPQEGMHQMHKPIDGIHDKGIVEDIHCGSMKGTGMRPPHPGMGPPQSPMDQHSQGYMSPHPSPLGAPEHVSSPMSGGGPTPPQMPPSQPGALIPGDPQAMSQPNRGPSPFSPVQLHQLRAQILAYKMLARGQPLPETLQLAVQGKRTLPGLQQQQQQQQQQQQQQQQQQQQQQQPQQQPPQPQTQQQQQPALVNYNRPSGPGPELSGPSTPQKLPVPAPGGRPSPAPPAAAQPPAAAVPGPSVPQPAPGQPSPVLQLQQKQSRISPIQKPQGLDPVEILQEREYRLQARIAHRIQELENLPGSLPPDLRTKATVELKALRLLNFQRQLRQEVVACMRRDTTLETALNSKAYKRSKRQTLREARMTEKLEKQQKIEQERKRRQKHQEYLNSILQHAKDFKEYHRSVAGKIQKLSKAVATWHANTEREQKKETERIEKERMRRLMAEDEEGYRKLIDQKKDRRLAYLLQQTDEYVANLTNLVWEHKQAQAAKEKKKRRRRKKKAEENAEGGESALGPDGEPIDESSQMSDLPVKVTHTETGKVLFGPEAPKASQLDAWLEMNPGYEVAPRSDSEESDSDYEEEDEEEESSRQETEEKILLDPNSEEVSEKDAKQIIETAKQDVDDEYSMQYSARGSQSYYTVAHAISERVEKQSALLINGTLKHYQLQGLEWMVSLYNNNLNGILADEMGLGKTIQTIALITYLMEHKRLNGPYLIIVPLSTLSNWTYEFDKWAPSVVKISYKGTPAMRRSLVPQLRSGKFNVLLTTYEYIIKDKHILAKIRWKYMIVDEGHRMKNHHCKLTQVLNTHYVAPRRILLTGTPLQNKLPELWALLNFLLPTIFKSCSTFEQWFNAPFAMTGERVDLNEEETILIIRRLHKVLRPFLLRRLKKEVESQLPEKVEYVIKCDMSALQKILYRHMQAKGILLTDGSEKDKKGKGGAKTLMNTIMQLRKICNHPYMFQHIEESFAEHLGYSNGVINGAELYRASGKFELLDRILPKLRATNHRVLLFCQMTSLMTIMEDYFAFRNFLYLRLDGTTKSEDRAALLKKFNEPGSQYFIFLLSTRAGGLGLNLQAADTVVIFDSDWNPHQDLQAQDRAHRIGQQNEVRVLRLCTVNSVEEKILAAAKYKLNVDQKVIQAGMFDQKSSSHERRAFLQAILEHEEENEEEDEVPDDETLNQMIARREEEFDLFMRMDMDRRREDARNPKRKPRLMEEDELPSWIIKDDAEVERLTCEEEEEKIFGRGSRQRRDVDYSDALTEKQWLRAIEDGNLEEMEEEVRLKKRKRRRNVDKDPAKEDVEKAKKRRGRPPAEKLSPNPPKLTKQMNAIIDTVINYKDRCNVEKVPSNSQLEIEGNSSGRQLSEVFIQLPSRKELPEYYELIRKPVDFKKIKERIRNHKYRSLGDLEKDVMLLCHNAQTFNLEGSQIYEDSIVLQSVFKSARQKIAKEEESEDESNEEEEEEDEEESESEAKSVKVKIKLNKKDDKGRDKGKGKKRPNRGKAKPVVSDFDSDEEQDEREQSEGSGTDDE
assay_method_text: HiBit assay in engineered HT1080 CRISPR knock-in cell, 6 hrs (B series), SMARCA2
Type: cell-based
cond: HT1080 CRISPR knock-in cells, 6 hrs incubation; read-out: SMARC A2 HT1080 HiBit DC50
property: DC50

Here's what some known entries look like.
Cc1ncsc1-c1ccc([C@H](C)NC(=O)[C@@H]2C[C@@H](O)CN2C(=O)[C@@H](c2cc(OCCCn3cc(-c4ccc5c(c4)C(C)(C)c4nc(=O)c6c(Cl)cccc6n4-5)cn3)no2)C(C)C)cc1	100 to 500 nM
Cc1ncsc1-c1ccc([C@H](C)NC(=O)[C@@H]2C[C@@H](O)CN2C(=O)[C@H](C(C)C)n2cc([C@H]3CC[C@H](CN4CCC(c5ccc6c(c5)C(C)(C)c5nc(=O)c7c(Cl)cccc7n5-6)CC4)CC3)nn2)cc1	< 100 nM
Cc1ncsc1-c1ccc([C@H](C)NC(=O)[C@@H]2C[C@@H](O)CN2C(=O)[C@@H](NC(=O)C2CCC(CN3CCC(c4ccc5c(c4)C(C)(C(F)(F)F)c4nc(=O)c6c(Cl)cccc6n4-5)CC3)CC2)C(C)(C)C)cc1 (some centres unmarked)	100 to 500 nM
Cc1ncsc1-c1ccc([C@H](C)NC(=O)[C@@H]2C[C@@H](O)CN2C(=O)[C@H](C(C)C)n2cc(C3CCC(N4CCC(c5cccc6c5C(C)(C)c5nc(=O)c7c(Cl)cccc7n5-6)CC4)CC3)nn2)cc1 (some centres unmarked)	< 100 nM
Cc1ncsc1-c1ccc([C@H](C)NC(=O)[C@@H]2C[C@@H](O)CN2C(=O)[C@@H](c2cc(OCCc3cccc4c3C(C)(C)c3nc(=O)c5c(Cl)cccc5n3-4)no2)C(C)C)cc1	< 100 nM
Cc1ncsc1-c1ccc([C@H](C)NC(=O)[C@@H]2C[C@@H](O)CN2C(=O)[C@H](C(C)C)n2cc([C@H]3CC[C@H](CN4CCC(c5cccc6c5C(C)(C)c5nc(=O)c7c(Cl)cccc7n5-6)CC4)CC3)nn2)cc1	< 100 nM
Cc1ncsc1-c1ccc(CNC(=O)[C@@H]2C[C@@H](O)CN2C(=O)[C@@H](NC(=O)C2(F)CC2)C(C)(C)C)c(OCCCCN2CCC(c3ccc4c(c3)-n3c(nc(=O)c5c(Cl)cccc53)C4(C)C)CC2)c1	< 100 nM
Cc1ncsc1-c1ccc([C@H](CC(=O)NCC2CCC(N3CCC(c4ccc5c(c4)-n4c(nc(=O)c6c(Cl)cccc64)C5(C)C)CC3)CC2)NC(=O)[C@@H]2C[C@@H](O)CN2C(=O)[C@@H](NC(=O)C2(F)CC2)C(C)(C)C)cc1 (some centres unmarked) [Compound B54]	100 to 500 nM

What value of DC50 has been reported for the following molecule? Cc1cc(C(C(=O)N2C[C@H](O)C[C@H]2C(=O)N[C@@H](CN2CCC(c3cccc4c3C(C)(C)c3nc(=O)c5c(Cl)cccc5n3-4)CC2)c2ccc(-c3scnc3C)cc2)C(C)C)on1 (some centres unmarked) [Compound B153]
< 100 nM

Thanks! And Cc1ncsc1-c1ccc([C@H](C)NC(=O)[C@@H]2C[C@@H](O)CN2C(=O)[C@@H](NC(=O)C23CCC(CN4CCC(c5ccc6c(c5)-n5c(nc(=O)c7c(Cl)cccc75)C6(C)C)CC4)(CC2)C3)C(C)(C)C)cc1 ?
< 100 nM

Ok, now Cc1ncsc1-c1ccc([C@H](C)NC(=O)[C@@H]2C[C@@H](O)CN2C(=O)[C@H](C(C)C)n2cc(CCN3CCC(c4ccc5c(c4)C(C)(C)c4nc(=O)c6c(Cl)cccc6n4-5)CC3)nn2)cc1
< 100 nM

Query C[C@H](NC(=O)[C@@H]1C[C@@H](O)CN1C(=O)[C@@H](NC(=O)[C@H]1CC[C@H](CN2CCC(c3ccc4c(c3)C(C)(C)c3nc(=O)c5c(Cl)cccc5n3-4)CC2)CC1)C(C)(C)C)c1ccc(-c2ncnn2C)cc1 next
> 1000 nM

Lookup Cc1ncsc1-c1ccc([C@H](C)NC(=O)[C@@H]2C[C@@H](O)CN2C(=O)[C@H](C(C)C)n2cc(CN3CCC(c4ccc5c(c4)-n4c(nc(=O)c6c(Cl)cccc64)C5(C)C)CC3)nn2)cc1
< 100 nM
